Exercise: state measured TGI for each of the compounds provided.
System: SF-295 CNS
assay_protocol: NCI tumour cell line growth inhibition, 48 h

## Input Identify measured TGI corresponding to "O=C(NNc1cn[nH]c(=O)n1)c1cccc2nc3ccccc3nc12"
## Output > 100 µM

## Input Identify measured TGI corresponding to "O=C1Nc2ccc(Br)cc2C1=Nc1ccc2c(c1)OCO2"
## Output 78.7 µM

## Input Identify measured TGI corresponding to COc1cc(C2C(C(=O)O)=C(CO)Oc3cc4c(cc32)OCO4)cc(OC)c1OC (centres undefined)
## Output > 100 µM

## Input Identify measured TGI corresponding to COC(=O)CCC(NC(=S)N/N=C(\C)c1ccco1)C(=O)OC (centres undefined)
## Output > 100 µM

## Input Identify measured TGI corresponding to "CC(C)=C1C(=O)c2c(Cl)sc(Cl)c2C1=O"
## Output > 100 µM

## Input Identify measured TGI corresponding to "O=C(CSc1nnc(Cc2ccccc2)o1)Nc1ccc(Cl)cc1Cl"
## Output > 100 µM

## Input Identify measured TGI corresponding to "N#Cc1c(O)c(C=Nc2ccc(Cl)cc2)c(=O)n2c1[nH]c1ccccc12"
## Output > 100 µM

## Input Identify measured TGI corresponding to CC12CCC3(C1)[C@H](CC2=O)C[C@@H](OC(=O)c1ccccc1)C1C(C)(CO)CCC[C@@]13C (some centres undefined)
## Output > 38.9 µM

## Input Identify measured TGI corresponding to "O=c1c(Br)c(-c2ccccc2)[nH]c2ccccc12"
## Output > 100 µM

## Input Identify measured TGI corresponding to "Cc1cn(C(=O)NC23CC4CC(CC(C4)C2)C3)c(=O)[nH]c1=O"
## Output > 100 µM

## Input Identify measured TGI corresponding to "O=C1C[C@@H](c2ccc(O)cc2)[C@@]2(O1)C(=O)O[C@H]([C@@H](O)CO)[C@@H]2O"
## Output > 100 µM

## Input Identify measured TGI corresponding to "CC(=O)c1ccc(NC(=O)/C(CC(=O)/C=C/c2ccccc2)=N/NC(N)=S)cc1"
## Output > 100 µM

## Input Identify measured TGI corresponding to "Clc1ccc(Cl)c(NNc2cc(Cl)ccc2Cl)c1"
## Output > 10 µM

## Input Identify measured TGI corresponding to "CC(=O)N1CCN([C@H]2CCC[C@@H](NC(=O)c3cc4c(F)ccc(C)c4[nH]3)C2)CC1"
## Output > 100 µM

----------
Tested on: SN12C renal
assay_protocol: NCI tumour cell line growth inhibition, 48 h
measurement_kind: TGI

## Input Identify measured TGI corresponding to CC1c2ccccc2Cn2cc3c(c21)C(=O)c1cccc(OP(=O)(O)OCc2ccccc2)c1C3=O (stereo not drawn)
## Output > 100 µM

## Input Identify measured TGI corresponding to Cc1ccc(/C=C2\CN(C)CC3=C2NC(=S)NC3c2ccc(C)cc2)cc1 (stereo not drawn)
## Output > 100 µM

## Input Identify measured TGI corresponding to "COc1ccc2c3c([nH]c2c1CC=C(C)C)C(=O)C=C(C)C3=O"
## Output > 25 µM

## Input Identify measured TGI corresponding to "Nc1ccc(N)c2c1C(=O)c1ccccc1C2=O"
## Output > 100 µM

## Input Identify measured TGI corresponding to "CC(=O)c1ccc(NC(=O)/C(CC(=O)/C=C/c2ccccc2)=N/NC(N)=S)cc1"
## Output > 100 µM

## Input Identify measured TGI corresponding to CCOc1ccc(NC(=O)CC2C(=O)Nc3ccccc3S2=O)cc1 (stereo not drawn)
## Output > 100 µM

## Input Identify measured TGI corresponding to "Cc1c(C)c(S(=O)(=O)N(CCCCCCN)OCCCN)c(C)c2c1OC(C)(C)CC2"
## Output > 100 µM

## Input Identify measured TGI corresponding to CCOC(=O)C1=CC(C)(C(=O)OCC)Nc2c(nc(SC)[nH]c2=O)N1 (stereo not drawn)
## Output > 10 µM

## Input Identify measured TGI corresponding to "CCCCSC(=CC(=O)c1cccc(C(=O)C=C(SCCCC)SCCCC)n1)SCCCC"
## Output > 100 µM

## Input Identify measured TGI corresponding to "N#CC(C#N)=C(C(C#N)C#N)C(C#N)C#N"
## Output > 100 µM

## Input Identify measured TGI corresponding to "CC(=O)Nc1cccc(C#Cc2cncnc2Nc2ccc(OCc3cccc(F)c3)c(Cl)c2)n1"
## Output > 25 µM

## Input Identify measured TGI corresponding to "C/C(=N/NC(=S)N1CCCCC1)c1cccc(/C(C)=N\NC(=S)N2CCCCC2)n1"
## Output 4.83 µM

## Input Identify measured TGI corresponding to "CCN(CC)S(=O)(=O)c1ccc2nc(NC(=O)OC)[nH]c2c1"
## Output > 100 µM

## Input Identify measured TGI corresponding to COc1ccc(OC)c2c(C(=O)O)c(C(C)c3ccccc3)ccc12 (stereo not drawn)
## Output > 100 µM

## Input Identify measured TGI corresponding to "COc1ccc(-n2sc3ncc(C)cc3c2=O)cc1"
## Output 35.4 µM

## Input Identify measured TGI corresponding to "CC(=O)Nc1ccc(C2C(C(=O)Nc3ccccc3C)=C(C)NC(C)=C2C(=O)Nc2ccccc2C)cc1"
## Output > 100 µM

## Input Identify measured TGI corresponding to COc1ccccc1N1CCN(CC(O)COc2c(Br)c(Br)c(Br)c3c2OC(C)(C)C3)CC1 (stereo not drawn)
## Output 32.9 µM

## Input Identify measured TGI corresponding to "O=C1C=CC(=O)C(c2cc(-c3ccc(Cl)cc3)nn2-c2ccccc2)=C1"
## Output 46.9 µM

----------
Test system: OVCAR-5 ovarian
assay_protocol: NCI tumour cell line growth inhibition, 48 h
Where a SMILES comes first, the peptide text is derived from it. [ ]: non-standard residue; d: D form. The star is where a group is joined. Nle = CCCC[C@H](N)C(=O)O; Cbz = O=C(OCc1ccccc1)*
measurement_kind: TGI

## Input Identify measured TGI corresponding to "CCCc1n(Cc2ccc3ccccc3c2)c2ccccc2[n+]1Cc1ccc2ccccc2c1"
## Output 1.98 µM

## Input Identify measured TGI corresponding to CC(C1CCCC1=O)C1CCCC1=O (stereo not drawn)
## Output > 100 µM

## Input Identify measured TGI corresponding to "CC(C)=C1C(=O)c2c(Cl)sc(Cl)c2C1=O"
## Output > 100 µM

## Input Identify measured TGI corresponding to COC(=O)C1=C(OC(=O)/C(=C/c2ccccc2)c2ccccc2)C(C(=O)OC)[C@@]2(O)[C@@H](C(=O)OC)[C@H](C)C[C@@H]1[C@@H]2C(=O)OC (stereo partly drawn)
## Output > 100 µM

## Input Identify measured TGI corresponding to "CNC(=O)CNC(=O)CCC(=O)OC"
## Output > 100 µM

## Input Identify measured TGI corresponding to "N#CC(C#N)=C(C(C#N)C#N)C(C#N)C#N"
## Output > 100 µM

## Input Identify measured TGI corresponding to O=C1NC(c2cccc3ccccc23)Nc2ccc(O)cc21 (stereo not drawn)
## Output 101 µM

## Input Identify measured TGI corresponding to "CCCCCCC[CH2][Sn]([Cl])([Cl])[CH2]CCCCCCC"
## Output 26.2 µM

## Input Identify measured TGI corresponding to "O=c1c(Br)c(-c2ccccc2)[nH]c2ccccc12"
## Output > 100 µM

## Input Identify measured TGI corresponding to C#Cc1nc(N)c2ncn(C3OC(COS(N)(=O)=O)C(O)C3O)c2n1 (stereo not drawn)
## Output 0.122 µM

## Input Identify measured TGI corresponding to "Cc1nc(Nc2ccc(Cl)cc2Cl)sc1C(=O)Nc1ccccc1"
## Output > 100 µM

## Input Identify measured TGI corresponding to COc1cc(C2C(C(=O)O)=C(CO)Oc3cc4c(cc32)OCO4)cc(OC)c1OC (stereo not drawn)
## Output > 100 µM

## Input Identify measured TGI corresponding to CCCC[C@@H](C=O)NC(=O)[C@H](CC(C)C)NC(=O)[C@H](CC(C)C)NC(=O)OCc1ccccc1 (Cbz-Leu-Leu-[Nle]-aldehyde)
## Output 2.84 µM

## Input Identify measured TGI corresponding to "CCOC(=O)Nc1nc2cc(OC)c(OC)c(OC)c2s1"
## Output > 100 µM

## Input Identify measured TGI corresponding to "O=C(CSCC(=O)N/N=C\c1cc(Cl)cc(Cl)c1O)N/N=C\c1cc(Cl)cc(Cl)c1O"
## Output 22.9 µM

## Input Identify measured TGI corresponding to CCCCC1C=Cn2c(=O)oc3c(OC(C)C)c(OC(C)C)c(O)c1c32 (stereo not drawn)
## Output 34.2 µM

## Input Identify measured TGI corresponding to "O=C1OC(c2ccc(O)c(F)c2)(c2ccc(O)c(F)c2)c2cccc3cccc1c23"
## Output > 25 µM

## Input Identify measured TGI corresponding to N#CC(C#N)=c1ccc(=C2N3CCCC3CN2C23CC4CC(CC(C4)C2)C3)cc1 (stereo not drawn)
## Output > 100 µM

## Input Identify measured TGI corresponding to "O=C1C=C(Nc2ccccc2C(=O)c2ccccc2)c2ccccc2C1=O"
## Output > 100 µM

## Input Identify measured TGI corresponding to "Cc1cc2c(cc1C)[n+]([O-])c(NCCCN(C)C)c(C#N)[n+]2[O-]"
## Output > 100 µM

## Input Identify measured TGI corresponding to COc1ccc(C2c3c(n(C)c(=O)n(C)c3=O)OC(N(C)C)(N(C)C)C2(F)F)cc1 (stereo not drawn)
## Output > 100 µM

## Input Identify measured TGI corresponding to "O=C1C[C@@H](c2ccc(O)cc2)[C@@]2(O1)C(=O)O[C@H]([C@@H](O)CO)[C@@H]2O"
## Output > 100 µM

## Input Identify measured TGI corresponding to CC1=CP(=O)(OC(C)C)CC(C)=C1Cl (stereo not drawn)
## Output > 100 µM
